System: mixed enteric bacteria (klebsiella pneumoniae, Proteus vulgarus, Citrobacter sp., Escherichia coli)
Assay: Maximum growth slope of mixed enteric bacteria culture with GROTAN plus alkanolamine
Type: cell-based
Settings: 2500 ppm amine plus GROTAN 650 ppm; pH 9.0, TSB with emulsified oil, 24 hour
Description: A culture of mixed enteric bacteria (klebsiella pneumoniae, Proteus vulgarus, Citrobacter sp., Escherichia coli) at pH=9.0 in TSB (trypticase soy broth) media mixed with emulsified oil was prepared. […] The maximum growth slope was calculated by taking the 10 contiguous data points that result in the highest growth slope (units of OD per time) over the 24 hour period. […]
readout_label: maximum growth slope (OD per time)
API: value field is a number in OD per time; no unit string.

Some entries whose results are on file:
CCCCNCCO [BAE, butylaminoethanol] :: 0.082
OCCNCCO [DEA, diethanolamine] :: 0.466
CC(C)(N)CO [AMP, 2-methyl-2-amino-1-propanol, reference compound] :: 0.32

# ---- query molecule ----
Which maximum growth slope value belongs to NCCOCCO [DGA, diglycolamine, reference compound] ?
0.1955
